Entries and their Trep Concentration (μM) 15 min
PROCEDURE TEXT: Stability in cryopreserved hepatocytes, human
MEASUREMENT NAME: Trep Concentration (μM) 15 min (µM)

CCCCCC(CCC1C(O)CC2Cc3c(cccc3OCC(=O)O)CC21)OC(=O)C1CCCN1 (centres unmarked) [XXXVI]; 0.502
CCCCCC(CCC1C(O)CC2Cc3c(cccc3OCC(=O)O)CC21)OC(=O)C(C)C (centres unmarked) [LXVII]; 0.631
CCCCCC(CCC1C(O)CC2Cc3c(cccc3OCC(=O)O)CC21)OC(=O)C(C)(C)C (centres unmarked) [XLIX]; 0.192
CCCCCC(CCC1C(O)CC2Cc3c(cccc3OCC(=O)O)CC21)OC(=O)C(N)CCCCN (centres unmarked) [XXXV]; 0.0481
CCCCCC(CCC1C(O)CC2Cc3c(cccc3OCC(=O)O)CC21)OCC (centres unmarked) [XLVII]; 0.0152
CCCCCC(CCC1C(O)CC2Cc3c(cccc3OCC(=O)O)CC21)OC(=O)CCC(=O)N1CCOCC1 (centres unmarked) [XXXIII]; 0.0192
CCCCCC(CCC1C(O)CC2Cc3c(cccc3OCC(=O)O)CC21)OC(=O)COc1ccc(O)cc1 (centres unmarked) [LIV]; 0.58
CCCCCC(CCC1C(O)CC2Cc3c(cccc3OCC(=O)O)CC21)OCCN1CCOCC1 (centres unmarked) [L]; 0.00195
